- measurement.protocol: Hepatic impairment study: atogepant plasma protein binding
- Type: in vitro ADME, human
- measurement.conditions: human, plasma, oral, 60 mg, severe-impaired, 2 hr post dose; read-out: plasma protein binding, percent bound (converted)
value.kind: fraction unbound at 2 h
The answer should be a number; do not append a unit.

Input line: # query: fraction unbound at 2 h of entry `C[C@@H]1[C@H](c2c(F)ccc(F)c2F)C[C@H](NC(=O)c2cnc3c(c2)C[C@@]2(C3)C(=O)Nc3ncccc32)C(=O)N1CC(F)(F)F`
Output line: 0.047

---

- measurement.protocol: Hepatic impairment study: atogepant plasma PK
- Assay type: in vivo, human
- measurement.conditions: human, plasma, po, 60 mg, normal hepatic function, single 60 mg oral dose; read-out: Cmax
value.kind: Cmax
Express your answer as a number followed by its unit.

Input line: Name the recorded Cmax for C[C@@H]1[C@H](c2c(F)ccc(F)c2F)C[C@H](NC(=O)c2cnc3c(c2)C[C@@]2(C3)C(=O)Nc3ncccc32)C(=O)N1CC(F)(F)F [atogepant] .
Output line: 589 ng/mL

---

- measurement.protocol: Atogepant-rifampin drug interaction study: atogepant plasma PK
- Format: in vivo, human
- measurement.conditions: both sexes, human, plasma, oral, Treatment B2: atogepant 60 mg + multiple-dose rifampin 600 mg; read-out: Vz/F
value.kind: Vd/F (L)
Give just the number in L; leave the unit off.

Input line: Quick one: Vd/F for `C[C@@H]1[C@H](c2c(F)ccc(F)c2F)C[C@H](NC(=O)c2cnc3c(c2)C[C@@]2(C3)C(=O)Nc3ncccc32)C(=O)N1CC(F)(F)F` ?
Output line: 197

---

- measurement.protocol: Hepatic impairment study: atogepant plasma PK
- Type: in vivo, human
- measurement.conditions: human, plasma, po, 60 mg, mild hepatic impairment, single 60 mg oral dose; read-out: Cmax
value.kind: Cmax (ng/mL)
Reply with just the number (in ng/mL).

Input line: Data request, read-out Cmax, for C[C@@H]1[C@H](c2c(F)ccc(F)c2F)C[C@H](NC(=O)c2cnc3c(c2)C[C@@]2(C3)C(=O)Nc3ncccc32)C(=O)N1CC(F)(F)F [atogepant]
Output line: 666

---

- measurement.protocol: Atogepant-quinidine gluconate (P-gp inhibition) drug interaction study: atogepant PK
- Type: in vivo, human
- measurement.conditions: human, plasma; with or without quinidine gluconate; read-out: atogepant median tmax
value.kind: Tmax (h)
Please reply with the bare figure in h and do not write the unit itself.

Input line: State the recorded Tmax for this entry: `C[C@@H]1[C@H](c2c(F)ccc(F)c2F)C[C@H](NC(=O)c2cnc3c(c2)C[C@@]2(C3)C(=O)Nc3ncccc32)C(=O)N1CC(F)(F)F`
Output line: 1.5

---

- System: plasma protein
- measurement.protocol: Hepatic impairment study: atogepant plasma protein binding
- Type: in vitro ADME, human
- measurement.conditions: human, normal hepatic function, 0 hr (predose, spiked sample); read-out: plasma protein binding, percent bound (converted)
value.kind: fraction unbound
I'd appreciate a reply containing only the number, no unit.

Input line: Form field: reported fraction unbound of `C[C@@H]1[C@H](c2c(F)ccc(F)c2F)C[C@H](NC(=O)c2cnc3c(c2)C[C@@]2(C3)C(=O)Nc3ncccc32)C(=O)N1CC(F)(F)F`
Output line: 0.0211

---

- measurement.protocol: Hepatic impairment study: atogepant plasma PK
- Assay type: in vivo, human
- measurement.conditions: human, plasma, oral, 60 mg, normal hepatic function; read-out: Cmax Geometric Least Squares Mean, Reference
value.kind: Cmax (ng/mL)
A number alone suffices; assume ng/mL.

Input line: Using the record for `C[C@@H]1[C@H](c2c(F)ccc(F)c2F)C[C@H](NC(=O)c2cnc3c(c2)C[C@@]2(C3)C(=O)Nc3ncccc32)C(=O)N1CC(F)(F)F` , report its Cmax.
Output line: 539
